Test system: A549 (non-small cell lung cancer) cells
protocol-description: MTT in vitro cytotoxicity, A549
Assay type: cell-based, human
condition-parameters: Homo sapiens, A549, 48 h, read-out: Concentration to inhibit 50% cell growth (IC50 nM ± SD), A549
experimental-endpoint: IC50 (nM)
Just the number in nM, nothing appended.

Given the entry CC[C@@]1(O)C(=O)OCc2c1cc1n(c2=O)Cc2cc3c(CN(C)C)c(O)ccc3nc2-1 , report its measured IC50.
28.5

Record request: IC50 value, item CC[C@@]1(O)C(=O)OCc2c1cc1n(c2=O)Cc2c-1nc1ccccc1c2/C=N/OC(C)(C)C
4.7

====

Tested on: U87, BX-PC3, HT-29, OV-3 and A549 cell lines
protocol-description: MTT in vitro cytotoxicity, five cell lines together (mean / overall)
condition-parameters: MTT; A549, HT-29, OV-3, U87, BX-PC3
experimental-endpoint: in vitro activity / cytotoxicity (in words)

CCC1(O)C(=O)OCc2c1cc1n(c2=O)Cc2cc3c(CC=NOC(C)(C)C)cccc3nc2-1 (stereo not drawn)    significant cytotoxicity
CCC1(O)C(=O)OCc2c1cc1n(c2=O)Cc2cc3c(CC=NOC(C)(C)C)c(F)ccc3nc2-1 (stereo not drawn)    significant cytotoxicity
CCC1(O)C(=O)OCc2c1cc1n(c2=O)Cc2cc3c(CC=NOC(C)(C)C)c(OC(C)=O)ccc3nc2-1 (stereo not drawn)    significant cytotoxicity

====

For each of the molecules below, state its IC50.
System: U87 (glioma) cells
protocol-description: MTT in vitro cytotoxicity, U87
Format: cell-based, human
condition-parameters: MTT, drug cultured 48 hours, U87; read-out: Concentration to inhibit 50% cell growth (IC50 nM ± SD), U87
Lab book: enter the figure in nM, no units written.

# input molecule: CCC1(O)C(=O)OCc2c1cc1n(c2=O)Cc2cc3c(CC=NOC(C)(C)C)c(OC(C)=O)ccc3nc2-1 (stereo not shown) ; wanted: its IC50
4.1

I would be grateful if you could share the reported IC50 for CCc1c2c(nc3ccc(O)cc13)-c1cc3c(c(=O)n1C2)COC(=O)[C@]3(O)CC .
3.1

Reported IC50 for CCC1(O)C(=O)OCc2c1cc1n(c2=O)Cc2cc3c(CC=NOC(C)(C)C)c(F)ccc3nc2-1 (stereo not shown) : what is it?
2.1

# lookup: IC50 of CCC1(O)C(=O)OCc2c1cc1n(c2=O)Cc2cc3c(CC=NOC(C)(C)C)cccc3nc2-1 (stereo not shown)
1.5

====

protocol-description: Determination of equitoxic dose (maximum tolerated dose)
Assay type: in vivo, nude mice
condition-parameters: nude, mouse, in vivo, intravenous; q2dx4; decrease in weight of around 15%; read-out: Experimentally determined dosage at the same level of toxicity (maximum tolerated dose)
experimental-endpoint: MTD
Be sure to follow the number with its unit.

Give the measured MTD of CC[C@@]1(O)C(=O)OCc2c1cc1n(c2=O)Cc2cc3c(CN(C)C)c(O)ccc3nc2-1 .
12 mg/kg

# get_value(readout='MTD', item= CCc1c2c(nc3ccc(OC(=O)N4CCC(N5CCCCC5)CC4)cc13)-c1cc3c(c(=O)n1C2)COC(=O)[C@]3(O)CC )
55 mg/kg

Form field: reported MTD of CC[C@@]1(O)C(=O)OCc2c1cc1n(c2=O)Cc2c-1nc1ccccc1c2/C=N/OC(C)(C)C
1 mg/kg
